- Measurement Context: 313.15 K; 101.33 kPa; Liquid; Vibrating tube method
Entries annotated with measured mass density
Numbers only here, please. The scale is kg/m3.

Worked cases, mass density given:
# Compound, Endpoint Result
records = [
    ("CCCCCCCCCC [decane]", 714.69),
    ("CCCCCCCCC [nonane]", 702.2),
    ("CCCCCCCC [octane]", 686.34),
]

Record CCCCCCC [heptane] , field mass density: 666.89

###

- Measurement Context: 323.15 K; 101.33 kPa; Liquid; Falling or rolling sphere viscometry
Readout Label: viscosity (mPa·s)
Could you give me the number in mPa·s? Just the number is fine.

# Chemical Structure, viscosity (mPa·s)
records = [
    ("CCCCCCCCC", 0.509),
    ("CCCCCCC", 0.324),
    ("CCCCCCCCCC", 0.627),
]

Would you kindly look at the next entry?
Record `CCCCCCCC` , field viscosity: 0.412

###

Collected viscosity values appear next to each entry.
- Measurement Context: 293.15 K; 101.33 kPa; Liquid; Falling or rolling sphere viscometry
Response body: numeric value in mPa·s, unit text excluded.

Example entries and their recorded answers appear below.
# Chemical Structure, Readout Unit, Endpoint Result
measured = [
    ("CCCCCCCCCC", "mPa·s", 0.915),
    ("CCCCCCCC", "mPa·s", 0.552),
]

According to the records, this compound `CCCCCCC` displays viscosity of 0.412

Short answer for `CCCCCCCCC` : viscosity was 0.713

###

- Measurement Context: 313.15 K; 101.33 kPa; Liquid; Falling or rolling sphere viscometry
Readout Label: viscosity (mPa·s)
Just the number please, in mPa·s, no unit attached.

// viscosity lookup, compound = `CCCCCCCC` , result: 0.45

The value of viscosity measured for the compound `CCCCCCCCC` turned out to be 0.564

Note to self: viscosity recorded for `CCCCCCCCCC` was 0.703

Documented viscosity of `CCCCCCC` : 0.348

###

- Measurement Context: 333.15 K; 101.33 kPa; Liquid; Vibrating tube method
Readout Label: mass density (kg/m3)
Give the value, in units of kg/m3, as a plain number.

Worked examples follow.
# Compound, Readout Unit, Endpoint Result
records = [
    ("CCCCCCC [heptane]", "kg/m3", 649.33),
    ("CCCCCCCCCC [decane]", "kg/m3", 699.36),
    ("CCCCCCCC [octane]", "kg/m3", 669.77),
]

Next compound, mass density to be filled in.
mass density recorded for this compound, CCCCCCCCC [nonane] , is 686.34

###

Below is a list of entries, each paired with its recorded viscosity value.
- Measurement Context: 338.15 K; 101.33 kPa; Liquid; Falling or rolling sphere viscometry
Express the result in mPa·s but write the number alone.

Please review the entries below; each comes with its answer.
# Compound, Endpoint Result
records = [
    ("CCCCCCCCC [nonane]", 0.443),
    ("CCCCCCC [heptane]", 0.293),
    ("CCCCCCCC [octane]", 0.365),
]

Entry CCCCCCCCCC [decane] — recorded viscosity = 0.536

###

Listed below: mass density values for each entry.
- Measurement Context: 288.15 K; 101.33 kPa; Liquid; Vibrating tube method
Numbers after ± are expanded uncertainties.
Note to self: number, then unit, no commentary.

Field: example entries. Status: answers known.
# Chemical Structure, Endpoint Result
rows = [
    ("CCCCCCCCC", "721.64 ± 1.4 kg/m3"),
    ("CCCCCCCC", "706.54 ± 1.4 kg/m3"),
    ("CCCCCCCCCC", "733.57 ± 1.5 kg/m3"),
]

Turning to the following compound.
Entry `CCCCCCC` — recorded mass density = 688.13 ± 1.4 kg/m3

###

- Measurement Context: 328.15 K; 101.33 kPa; Liquid; Vibrating tube method
Readout Label: mass density (kg/m3)
Give the value, in units of kg/m3, as a plain number.

Reference set, count: 3
# Chemical Structure, mass density, kg/m3
measured = [
    ("CCCCCCCCCC", 703.21),
    ("CCCCCCCC", 673.95),
    ("CCCCCCC", 653.79),
]

Please turn your attention to the following entry.
`CCCCCCCCC` has a reported mass density of 690.33
